The compounds listed here are annotated with their inhibition in vivo at 30 µmol/kg.
System: Leukotrienes
test.method.notes: inhibition of leukotriene biosynthesis in vivo, rat peritoneal anaphylaxis model, oral
condition.summary: oral gavage, 30 μmol/kg, 1 h before antigen challenge, read-out: % Inhibition of Leukotrienes, Oral Dose at 30 μmol/kg
Experimental: Inhibition of the biosynthesis of leuktrienes in vivo after oral administration of compound was determined using a rat peritoneal anaphylaxis model in a similar manner as that described by Young and coworkers (Young, P. R.; Dyer, R. D.; Carter, G. W. Fed. Proc., Fed. Am. Soc. Exp. Biol. 1985, 44, 1185). […] Rats were sacrificed 15 minutes after this challenge and the peritoneal fluids were collected and analyzed for leukotriene levels. […]
measured.parameter: inhibition in vivo at 30 µmol/kg (%)

In [3]: df
Out[3]:
                                   compound  measured_number
0  NC(=O)N(O)CCNC(=O)c1ccc(Oc2ccccc2)cc1 [Example 52]               19
1  CNC(=O)N(O)CCCNC(=O)c1cccc(Oc2ccccc2)c1 [Example 23]               57
2  NC(=O)N(O)CCNC(=O)c1cc2ccccc2o1 [Example 63]               52
3  NC(=O)N(O)CCNC(=O)c1cccc(Oc2ccc(F)cc2)c1 [Example 54]               11
4  CC(CCNC(=O)c1ccc(Oc2ccc(F)cc2)o1)N(O)C(N)=O (stereo not drawn) [Example 88]               84
5  NC(=O)N(O)CCNC(=O)COc1ccccc1Oc1ccccc1 [Example 73]               53
6  NC(=O)N(O)CCNC(=O)c1cccc(Oc2ccc(Br)cc2)c1 [Example 53]               33
7  NC(=O)N(O)CCNC(=O)c1ccc(Oc2ccccc2)o1 [Example 36]               78
8  NC(=O)N(O)CCNC(=O)c1ccccc1Oc1ccccc1 [Example 51]               47
